Each item that follows carries a reported Percent Effect.
# Tested on: Mycobacterium tuberculosis
# method description: Cornell - Phenotypic assay to identify agents that inhibit growth of Mycobacterium tuberculosis
# Format: functional
# Parameters: scale not given: direction of the effect not stated beside the values
# conditions: 10 mM as filed; unlikely as a test dose
Hit rate of the full screen: of about 53,000 compounds, about 900 (1.7%) showed an effect of 50% or more. For the sample, strong results were picked, then their nearest neighbours and some compounds at random.
Give just the number in %; leave the unit off.

Solved entries (count: 3):
COc1ccccc1CCNC(=O)C1CCC(Cn2cnnn2)CC1 (centres undefined): 3.007
CNC(=O)c1sc2ccccc2c1C1CCN(c2nc(C)cc(C)n2)C1 (centres undefined): 14.17
COc1ccc2c(c1)C(=O)N(C)C1(CCN(CC=C(C)C)CC1)N2: 0.8841

Data request: Look up Percent Effect for this compound: `Cc1cc(NCc2cccc(C#N)c2)ccc1Br`
Data returned: 50.78

Data request: Look up Percent Effect for this compound: `Cc1ccc(-c2nc(CN3CC(n4nc(C)cc4C)C3)no2)cc1`
Data returned: 102.5

Data request: Look up Percent Effect for this compound: `Cc1cc(C)n(C2CN(Cc3noc(-c4ccccc4)n3)C2)n1`
Data returned: 16.77
